assay-remarks: chemical genetic growth profiling, strain panel (AID 1159580);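 note: tested at 20 µM; growth read once vehicle control cultures reached saturation at 30 °C; 1 = growth at the plate median or of vehicle wells; lower values mean less growth of the strain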
settings: S. cerevisiae deletion strains, growth OD, locus YLR058C, strain SHM2 (second series), active compounds read low
Among all 5,500 compounds or so, about 2,000 (36%) were called active. Roughly 18% stayed inconclusive and do not appear here. Some of the results follow.
measure: normalized growth
Note: the reply should be a number with no unit written.

Example cases with answers are listed next.
Query: Given the compound "O=[N+]([O-])c1ccc(SC2=NCCN2)c(Cl)c1" , what is its reported normalized growth?
Result: 0.992

Query: Given the compound "NC(=S)N/N=C\c1ccc(F)c(Cl)c1" , what is its reported normalized growth?
Result: 0.996

Query: Given the compound "CCSc1sc(C(=O)OC)c(-c2ccc(Cl)cc2)c1C#N" , what is its reported normalized growth?
Result: 0.986

Continuing:
Query: Given the compound "NC(=S)N/N=C\c1cc(F)cc(F)c1" , what is its reported normalized growth?
Result: 0.994
